# MEASUREMENT_TARGET: CLR/RAMP1 receptor (UniProt Q16602 23-461; O60894 27-148, limits assumed)
# Sequence (Q16602 23-461 limits assumed, chain 1 of 2): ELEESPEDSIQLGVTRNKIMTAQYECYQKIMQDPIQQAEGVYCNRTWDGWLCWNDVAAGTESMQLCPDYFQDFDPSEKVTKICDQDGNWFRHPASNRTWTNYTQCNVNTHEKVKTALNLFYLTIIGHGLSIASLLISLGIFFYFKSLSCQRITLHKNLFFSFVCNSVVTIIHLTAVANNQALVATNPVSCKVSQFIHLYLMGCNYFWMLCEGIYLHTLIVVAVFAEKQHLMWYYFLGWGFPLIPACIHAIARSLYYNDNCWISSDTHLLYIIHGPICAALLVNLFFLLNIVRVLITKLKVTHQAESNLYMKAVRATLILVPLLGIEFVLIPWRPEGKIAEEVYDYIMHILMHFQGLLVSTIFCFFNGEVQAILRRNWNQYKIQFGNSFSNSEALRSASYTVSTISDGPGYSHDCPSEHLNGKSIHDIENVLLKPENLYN
# Sequence (O60894 27-148 limits assumed, chain 2 of 2): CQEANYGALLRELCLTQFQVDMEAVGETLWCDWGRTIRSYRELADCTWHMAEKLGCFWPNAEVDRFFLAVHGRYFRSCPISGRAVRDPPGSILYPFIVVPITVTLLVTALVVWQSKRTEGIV
# EXPERIMENT: cell-based or functional assay
Square brackets hold non-standard residues; d marks the D form. Ends that are not written are not given here. * marks the point of attachment. Palmitoyl = CCCCCCCCCCCCCCCC(=O)*; AEEA = NCCOCCOCC(=O)O
Entries and their measured CLR/RAMP1 EC50 follow.

BINDER	CLR/RAMP1 EC50 / nM
Palmitoyl-KGCRFGTCTVQKLAHQIYQFTDKDSAPVDPSSPHSY-NH2 (cysteine pairing not given here) [SEQ ID NO: 92]	0.4
Ac-VGCRFGTCTVQKLAHQIYQFTDKDKDNSAPVDPSSPHSY-NH2 (ends and bridges not checked) [SEQ ID NO: 56]	224
[AEEA]K(Palmitoyl)GCRFGTCTVQKLAHQIYQFTDKDKQDSAPVDPSSPHSY-NH2 (ends and bridges not checked) [SEQ ID NO: 51]	0.2
Ac-KGCRFGTCTVQKLAHQIYQFTDKDSAPVDPSSPHSY-NH2 (cysteine pairing not given here) [SEQ ID NO: 93]	771
Palmitoyl-KGCRFGTCTVQKLAHQIYQFTDKDVAPRSKISPQGY-NH2 (ends and bridges not checked) [SEQ ID NO: 103]	4.5
